Biological target: murine E^d MHC class II allele (Mus musculus, UniProt P01904+P01915)
Sequence (P01904 26-255): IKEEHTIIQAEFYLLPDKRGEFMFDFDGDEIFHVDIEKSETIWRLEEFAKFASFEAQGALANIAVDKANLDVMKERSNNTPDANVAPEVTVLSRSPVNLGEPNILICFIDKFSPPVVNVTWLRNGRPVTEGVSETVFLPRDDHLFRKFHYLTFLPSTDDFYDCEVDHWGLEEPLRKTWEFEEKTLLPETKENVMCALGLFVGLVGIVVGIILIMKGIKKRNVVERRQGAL
Sequence (P01915 27-264 limits assumed): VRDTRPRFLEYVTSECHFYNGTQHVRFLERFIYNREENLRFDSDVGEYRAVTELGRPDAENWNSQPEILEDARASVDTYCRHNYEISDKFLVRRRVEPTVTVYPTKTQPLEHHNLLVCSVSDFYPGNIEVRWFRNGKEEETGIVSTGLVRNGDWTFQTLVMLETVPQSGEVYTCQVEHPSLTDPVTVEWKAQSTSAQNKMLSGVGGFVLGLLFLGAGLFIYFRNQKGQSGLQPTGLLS
Test: processed antigen assay, E^d allele (APC pulsed with native HEL)
Assay type: cell-based
Set-up: The A20 and CH27 B cell lymphoma lines express H-2^d and H-2^k alleles, respectively; endogenous in cells; host or cells: A20 B cell lymphoma (mitomycin C-treated or paraformaldehyde-fixed)
Details: Table 29; native HEL prepulse 5 μM; AE peptide 64 μM; supernatant dilution 1:4 (first value)
Non-standard residues stand in square brackets, D forms with d. hArg = N=C(N)NCCCC[C@H](N)C(=O)O; Cit = NC(=O)NCCC[C@H](N)C(=O)O
Kindly supply the reported T cell response relative to baseline (None = 1.0), 5 μM HEL E^d, first value values for the records listed here.

Some substances with known T cell response relative to baseline (None = 1.0), 5 μM HEL E^d, first value results, for comparison:
Substance: Ac-LRMK E PK-NH2 (Ac-LRMKEPK-NH2) [AE231]
Target or system: murine E^d MHC class II allele (Mus musculus, UniProt P01904+P01915)
Measurement: 0.96,
//
Substance: Ac-LRMK Q PK-NH2 (Ac-LRMKQPK-NH2) [AE233]
Target or system: murine E^d MHC class II allele (Mus musculus, UniProt P01904+P01915)
Measurement: 0.48,
//
Substance: Ac-LRMKLPK-NH2 [AE114]
Target or system: murine E^d MHC class II allele (Mus musculus, UniProt P01904+P01915)
Measurement: 0.23,
//
Substance: Ac-LRMK N PK-NH2 (Ac-LRMKNPK-NH2) [AE232]
Target or system: murine E^d MHC class II allele (Mus musculus, UniProt P01904+P01915)
Measurement: 0.50,
//
Substance: Ac-LRMK M PK-NH2 (Ac-LRMKMPK-NH2) [AE236]
Target or system: murine E^d MHC class II allele (Mus musculus, UniProt P01904+P01915)
Measurement: 0.41,
//
Substance: Ac-LRMK K PK-NH2 (Ac-LRMKKPK-NH2) [AE229]
Target or system: murine E^d MHC class II allele (Mus musculus, UniProt P01904+P01915)
Measurement: 0.38,

Please look at the items below and tell me T cell response relative to baseline (None = 1.0), 5 μM HEL E^d, first value for each one, in order.
1. Ac-LRMK F PK-NH2 (Ac-LRMKFPK-NH2) [AE234]
2. Ac-LRMK HArg PK-NH2 (Ac-LRMK[hArg]PK-NH2; SMILES CSCC[C@H](NC(=O)[C@H](CCCNC(=N)N)NC(=O)[C@H](CC(C)C)NC(C)=O)C(=O)N[C@@H](CCCCN)C(=O)N[C@@H](CCCCNC(=N)N)C(=O)N1CCC[C@H]1C(=O)N[C@@H](CCCCN)C(N)=O) [AE227]

OUT:
1. 0.51,
2. 0.18,

Please look at the items below and tell me T cell response relative to baseline (None = 1.0), 5 μM HEL E^d, first value for each one, in order.
1. Ac-LRMK Y PK-NH2 (Ac-LRMKYPK-NH2; not fully specified; printed as Ac-LRMK Y PK-NH2) [AE235]
2. Ac-LRMK D PK-NH2 (Ac-LRMKDPK-NH2) [AE230]
3. Ac-LRMK Cit PK-NH2 (Ac-LRMK[Cit]PK-NH2; SMILES CSCC[C@H](NC(=O)[C@H](CCCNC(=N)N)NC(=O)[C@H](CC(C)C)NC(C)=O)C(=O)N[C@@H](CCCCN)C(=O)N[C@@H](CCCNC(N)=O)C(=O)N1CCC[C@H]1C(=O)N[C@@H](CCCCN)C(N)=O) [AE226]
4. Ac-LRMK H PK-NH2 (Ac-LRMKHPK-NH2) [AE228]

OUT:
1: 0.33,; 2: 0.81,; 3: 0.60,; 4: 0.35,
